Where these numbers come from: ChEMBL document CHEMBL4732066

Target: Forkhead box protein M1 (Homo sapiens)
Sequence (Q08050 whole entry): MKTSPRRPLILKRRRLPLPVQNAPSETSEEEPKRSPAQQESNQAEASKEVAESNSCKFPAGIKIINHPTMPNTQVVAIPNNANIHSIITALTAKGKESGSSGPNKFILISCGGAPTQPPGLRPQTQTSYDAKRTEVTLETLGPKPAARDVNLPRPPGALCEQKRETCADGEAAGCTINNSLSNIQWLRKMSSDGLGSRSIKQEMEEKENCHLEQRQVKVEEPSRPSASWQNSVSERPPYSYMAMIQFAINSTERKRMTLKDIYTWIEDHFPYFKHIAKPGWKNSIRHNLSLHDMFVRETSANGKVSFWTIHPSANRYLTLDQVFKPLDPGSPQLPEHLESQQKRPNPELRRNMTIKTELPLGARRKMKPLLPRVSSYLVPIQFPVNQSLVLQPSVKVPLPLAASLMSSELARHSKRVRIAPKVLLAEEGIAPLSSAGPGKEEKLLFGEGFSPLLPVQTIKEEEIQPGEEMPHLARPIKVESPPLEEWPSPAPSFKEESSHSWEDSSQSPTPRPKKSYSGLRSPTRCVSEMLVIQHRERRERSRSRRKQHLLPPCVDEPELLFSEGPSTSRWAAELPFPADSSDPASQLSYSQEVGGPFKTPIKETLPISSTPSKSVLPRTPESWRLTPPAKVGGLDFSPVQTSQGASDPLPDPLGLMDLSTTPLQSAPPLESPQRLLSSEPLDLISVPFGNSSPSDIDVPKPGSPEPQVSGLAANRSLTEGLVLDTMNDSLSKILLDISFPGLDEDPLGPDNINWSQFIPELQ
Test: Binding affinity to recombinant FOXM1 DBD (unknown origin) expressed in Escherichia coli BL21 (DE3) assessed as disruption of FOXM1-DNA complex preincubated for 1.5 hrs followed by DNA addition measured after 20 mins by EMSA
pIC50: −log10 of the molar value.
METRIC NAME: pIC50

1) Cc1c(C)c2c(c(C)c1O)CCC(C)(COc1ccc(CC3SC(=O)NC3=O)cc1)O2 (stereo unspecified)	3.91

----------
Biological target: Forkhead box protein M1 (Homo sapiens)
Assay: Binding affinity to recombinant FOXM1 DBD (unknown origin) expressed in Escherichia coli BL21 (DE3) assessed as disruption of FOXM1-DNA complex preincubated for 1.5 hrs followed by DNA addition measured after 20 mins by EMSA
pKi: −log10 of the molar value.
METRIC NAME: pKi

1. Cc1c(C)c2c(c(C)c1O)CCC(C)(COc1ccc(CC3SC(=O)NC3=O)cc1)O2 (stereo unspecified) [TROGLITAZONE]	7.28
